B1: ACBD3 (parent)
chain: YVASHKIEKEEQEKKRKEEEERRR

# Variants of: B1
# protocol-details: protein stability index of a GFP-peptide fusion (GPS, HEK-293T) (PSI 1-6); higher = more stable;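 note: lentivirally expressed fusions sorted by FACS into six bins by GFP to DsRed ratio, PSI derived from sequencing read proportions per bin multiplied by bin number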
# settings: c terminus: a fixed tail appended
Task for the reader: assign each of the following variants its reported protein stability index.
# answer = number (no unit)

For the variant shown here, E10G , give the reported protein stability index. 1.9

Return reported protein stability index; argument: K15I 2.39

Field request: protein stability index | item: H5K 2.61

Fill in: protein stability index of R16H is ___ 2.4

Could you share which protein stability index value was measured for S4C ? 2.81

Endpoint output: protein stability index of Q12N . Value? 2.18

Given K6D , state its recorded protein stability index. 4.14

For R23A , what is its reported protein stability index? 2.85

# protein stability index lookup, item E8N 2.36

Would you kindly share the measured protein stability index for K9F ? 2.72

Item under review: K9G . Reported protein stability index? 2.5

Reported protein stability index for E19H : what is it? 2.44

// returns reported protein stability index for input E18W 3.53

Which protein stability index is listed for E10S ? 3.11

Fill blank: measured protein stability index of the variant E19P is ____. 1.81

Param item = E20P ; retrieve measured protein stability index. 1.98

Name the reported protein stability index value associated with the variant E18D 2.38

Which protein stability index value is on record for K9A ? 3.03

I am curious: what protein stability index value has been reported for R23C ? 2.44

Look at this variant and give its reported protein stability index. E8K 2.57

What value of protein stability index has been reported for the following variant? E11C 2.55

May I ask what protein stability index has been recorded for E8G ? 2.49

Need protein stability index of K9V , thanks. 2

Requested read-out: protein stability index. Entry: E11Q 2.79

Endpoint output: protein stability index of V2R . Value? 5.49

Would you mind telling me what protein stability index value was observed for Y1R ? 5.49

// returns reported protein stability index for input E11H 3.12

Given the variant R23T , what is its reported protein stability index? 3.43

Fill blank: measured protein stability index of the variant Y1A is ____. 5.78

Reported protein stability index for R16W : what is it? 2.27

Value lookup for protein stability index; key = E19K 2.48

Form field: reported protein stability index of E18V 1.95

What measured protein stability index goes with E20I ? 2.58

Would you kindly share the measured protein stability index for R22I ? 3.59

Could you share which protein stability index value was measured for A3H ? 2.15

What value of protein stability index has been reported for the following variant? A3Y 2.13

For K9E , what is its reported protein stability index? 3.42

Looking for the measured protein stability index of E19S , can you help? 2.54

I'd like to know its protein stability index. The variant in question is E21Q 2.37

Record request: protein stability index value, item R23F 2.82

Given E11F , state its recorded protein stability index. 3.47

State the recorded protein stability index for this entry: K6Q 3.76

Would you mind telling me what protein stability index value was observed for K9D ? 3.61

Field request: protein stability index | item: E11L 2.13

What does the record list as protein stability index for Q12K ? 2.12

Which protein stability index value is on record for R23V ? 2.65

From: the supplement of paper PMC10567573
